# System: Saccharomyces cerevisiae
# TEST METHOD NOTES: protein stability index of tFT-peptide fusion in deletion strain of DAS1 (PSI (0-1 scale)); higher = more stable (slower turnover)
RECORDED METRIC: protein stability index
Note: the reply should be a number with no unit written.

Record FSMRWTFRYLVN . Reported protein stability index: 0.479

The recorded protein stability index for LKILVQKMNHQN is 0.662

Documented protein stability index of VRGAVGGWLLVG : 0.668

Value of protein stability index reported for the sequence ALIQPLPVQFLN is 0.649

The sequence listed as PSLPASFWRVVG has a reported protein stability index of 0.685

Value of measured protein stability index for the entry ARWRVWLWRGAS : 0.711

What the record says about CTSCGGKFRTNN : protein stability index is 0.675

# protein stability index (sequence: PDKRNHLITLLN ) is 0.622

The sequence LVVYLSCVACIG showed protein stability index equal to 0.0316

Consider CTSDGYKFRTNN . Its measured protein stability index is 0.669

====

# Test system: Saccharomyces cerevisiae
# TEST METHOD NOTES: protein stability index of tFT-peptide fusion (C-terminal peptide) (PSI (0-1 scale)); higher = more stable (slower turnover)
# SETUP CONDITIONS: genetic background: wild type; temperature: 30 C
Where protein stability index equals or exceeds 0.3, the correct label is 1 (yes); where it does not, the label is 0 (no).

Q) Would you say LYLEAYFCIFHF shows protein stability index at minimum 0.3?
A) 1 (yes)

Q) Tell me whether protein stability index is at least 0.3 here: LVLLRLSSLTIF
A) 1 (yes)

Q) // inclusive: protein stability index at least 0.3? input: LVVGCFLTFCFG
A) 0 (no)

Q) Is protein stability index at least 0.3? Consider WFLVLLFFWFLL
A) 1 (yes)

Q) Can AKVFGLILVLLT be said to have protein stability index at or above 0.3?
A) 0 (no)

Q) Identify whether the reported protein stability index of the following sequence is 0.3 or greater: FCLFMFVPLLPL
A) 1 (yes)

Q) hey, is protein stability index for this one >= 0.3? GLGWLLFVVERV
A) 1 (yes)

Q) Does SGPCSPRNLRRL have a reported protein stability index of at least 0.3?
A) 1 (yes)

Q) Check the entry PYLSAPLVATLS : does protein stability index equal or exceed 0.3?
A) 0 (no)

Q) Determine whether this sequence has protein stability index no lower than 0.3: MAMMQTILIIIH
A) 0 (no)

Q) Entry RIFRCYSFYVVV : is its protein stability index no less than 0.3?
A) 0 (no)

Q) Please indicate if the recorded protein stability index for RFHFAAPPHRPS meets or exceeds 0.3.
A) 1 (yes)

Q) Test whether the sequence GFCFVFVFQCFF records protein stability index of 0.3 or higher.
A) 0 (no)

Q) Decide: protein stability index of CILVSVDVIVFF >= 0.3?
A) 0 (no)

Q) Check if protein stability index >= 0.3 (inclusive). Item: FLFFCGWVSLFG
A) 1 (yes)

Q) Is reported protein stability index greater than or equal to 0.3 here: DALHPCIIYLTC
A) 0 (no)

Q) Could you please find out whether VWLFSWSVVGGT has protein stability index that meets 0.3 or exceeds it?
A) 1 (yes)

Q) hey, is protein stability index for this one >= 0.3? IIPAFPFAFLAF
A) 1 (yes)

Q) # check: protein stability index of GVGAISLGFSWL is greater than or equal to 0.3
A) 1 (yes)

Q) Could you tell me if the measured protein stability index of ILFCVRIGLFWT reaches 0.3 or more?
A) 0 (no)

Q) Can GGRFVWIVRAVG be said to have protein stability index at or above 0.3?
A) 0 (no)

Q) Item SPRSIALLHLFS with protein stability index of 0.3 or above?
A) 0 (no)

Q) Say whether RISYKTKINELI shows protein stability index of 0.3 or more.
A) 0 (no)

Q) Item LDHGRVVWVVVS with protein stability index of 0.3 or above?
A) 0 (no)

Q) Could you verify whether the entry DVCGVRYVLFVL shows protein stability index of no less than 0.3?
A) 1 (yes)

Q) State whether the measured protein stability index reaches 0.3, counting equality as reaching it, for KSARLYVTSFLC
A) 0 (no)

Q) Say whether GAFAGDVWRCVV shows protein stability index of 0.3 or more.
A) 0 (no)

Q) # bool: protein stability index of KTRQLINKITQM >= 0.3
A) 0 (no)

Q) Check this sequence for protein stability index at or above 0.3: LPAICFWCVLVG
A) 0 (no)

Q) Say whether VPPLPPPGPPTF shows protein stability index of 0.3 or more.
A) 1 (yes)

Q) State whether the measured protein stability index reaches 0.3, counting equality as reaching it, for FYACRLWLVSVR
A) 0 (no)

Q) Given the entry FRYLRPAFLLLH , answer whether its protein stability index meets or surpasses 0.3.
A) 0 (no)

Q) Tell me whether protein stability index is at least 0.3 here: IFFFQFLWFCLS
A) 0 (no)

Q) Has MALAVRVVVCGA a recorded protein stability index greater than or equal to 0.3?
A) 0 (no)

Q) Is the recorded value of protein stability index equal to or greater than 0.3 for this sequence? AYPAHQLLVSCL
A) 1 (yes)

Q) Is reported protein stability index greater than or equal to 0.3 here: LHLTFRLAVLYY
A) 0 (no)

Q) Identify whether the reported protein stability index of the following sequence is 0.3 or greater: CLRFVFWFVCFV
A) 0 (no)

Q) Is it the case that FFALFLPLACFC has protein stability index reaching or exceeding 0.3?
A) 1 (yes)

Just for reference, the supplement of paper PMC10724198 is where these values come from.
